Assay: Tmax in C57BL/6 mouse brain at 10 mg/kg, po measured for 24 hrs by LC-MS/MS analysis
Assay type: ADME, organism-based
QUANTITY_NAME: Tmax

Challenge: Look at this molecule and give its reported Tmax. C[C@H](Cn1cnc2c(N)ncnc21)OCP(=O)(O)OCCCSCCCCCCCCCCCCc1ccc(F)cc1.N
Response given: 4 h

* * *

Experiment: Tmax in C57BL/6 mouse liver at 10 mg/kg, po measured for 24 hrs by LC-MS/MS analysis
Assay type: ADME, organism-based
QUANTITY_NAME: Tmax (h)
Form entry: value (h) — number only.

Challenge: Look at this compound and give its reported Tmax. C[C@H](Cn1cnc2c(N)ncnc21)OCP(=O)(O)OCCCSCCCCCCCCCCCCC1CCCCC1.N
Response given: 4

* * *

Assay: Therapeutic index, ratio of CC50 for HEK293T cells to IC50 for HIV-1 sub-type-C MJ4 infected in HEK293T cells
Assay type: toxicity, cell-based
Conditions: human, read-out: Ratio CC50/IC50
QUANTITY_NAME: selectivity ratio

C[C@H](Cn1cnc2c(N)ncnc21)OCP(=O)(O)OCCCSCCCCCCCCCCCCc1ccccc1	> 12500
CCCCCCCCCCCCCCSCCCOP(=O)(O)CO[C@H](C)Cn1cnc2c(N)ncnc21	> 16700
C[C@H](Cn1cnc2c(N)ncnc21)OCP(=O)(O)OCCCSCCCCCCCCCCCCC#CC(C)(C)C	> 516
CCCCSCCCCCCCCCCCCCCCOP(=O)(O)CO[C@H](C)Cn1cnc2c(N)ncnc21	> 331

Pending compound:
Challenge: Look at this compound and give its reported selectivity ratio. CCCCCCCCCCCCSCCCOP(=O)(O)CO[C@H](C)Cn1cnc2c(N)ncnc21
Response given: > 532
